Listed next: entries and their corresponding IC50.
# experimental target: BRD4-BD1 (44-164) (Homo sapiens (Human), UniProt O60885)
# assay explanation: Alphascreen binding assay BRD4-BD1
# assay setup: BRD4(1) H4; read-out: Biochemical activity (IC50 μM) BRD4(1) H4

>  <compound>
Cc1onc(N)c1-c1cnc2ccn(CC3CCC(F)(F)CC3)c2c1

>  <experimental target>
BRD4-BD1 (44-164) (Homo sapiens (Human), UniProt O60885)

>  <IC50>
< 1 µM

$$$$
>  <compound>
Cc1noc(C)c1-c1cnc2c(Br)cn(C(CC#N)C3CCCC3)c2c1 (stereo not drawn)

>  <experimental target>
BRD4-BD1 (44-164) (Homo sapiens (Human), UniProt O60885)

>  <IC50>
< 1 µM

$$$$
>  <compound>
COc1ncc(-c2cn(C(C)c3ccccc3)c3cc(-c4c(C)noc4C)cnc23)cn1 (stereo not drawn)

>  <experimental target>
BRD4-BD1 (44-164) (Homo sapiens (Human), UniProt O60885)

>  <IC50>
< 1 µM

$$$$
>  <compound>
Cc1noc(C)c1-c1cnc2c(-c3cnc(N)cn3)cn(C(C)c3ccccc3)c2c1 (stereo not drawn)

>  <experimental target>
BRD4-BD1 (44-164) (Homo sapiens (Human), UniProt O60885)

>  <IC50>
< 1 µM

$$$$
>  <compound>
C=CCn1cc(-c2cn(S(=O)(=O)C3CCCC3)c3cc(-c4c(C)noc4C)cnc23)cn1

>  <experimental target>
BRD4-BD1 (44-164) (Homo sapiens (Human), UniProt O60885)

>  <IC50>
< 1 µM

$$$$
>  <compound>
Cc1c(-c2cnc3ccn(CC4CCC(F)(F)CC4)c3c2)cnn1C

>  <experimental target>
BRD4-BD1 (44-164) (Homo sapiens (Human), UniProt O60885)

>  <IC50>
10 to 200 µM

$$$$
>  <compound>
Cc1noc(C)c1-c1cnc2c(C#CCO)cn(S(=O)(=O)C3CCCC3)c2c1

>  <experimental target>
BRD4-BD1 (44-164) (Homo sapiens (Human), UniProt O60885)

>  <IC50>
< 1 µM

$$$$
>  <compound>
COc1ncc(C(O)c2c[nH]c3ncc(-c4c(C)noc4C)cc23)cc1F (stereo not drawn)

>  <experimental target>
BRD4-BD1 (44-164) (Homo sapiens (Human), UniProt O60885)

>  <IC50>
< 1 µM

$$$$
>  <compound>
Cc1noc(C)c1-c1cnc2[nH]cc(C(=O)C3CCC(F)(F)CC3)c2c1

>  <experimental target>
BRD4-BD1 (44-164) (Homo sapiens (Human), UniProt O60885)

>  <IC50>
< 1 µM

$$$$

----------
# experimental target: BRD4-BD12 (1-477) (Homo sapiens (Human), UniProt O60885)
# assay explanation: Alphascreen binding assay BRD4-BD12
# assay setup: BRD4(1 2) H4; read-out: Biochemical activity (IC50 μM) BRD4(1 2) H4

>  <compound>
COc1ncc(-c2cn(C(C)c3ccccc3)c3cc(-c4c(C)noc4C)cnc23)cn1 (stereo not shown)

>  <experimental target>
BRD4-BD12 (1-477) (Homo sapiens (Human), UniProt O60885)

>  <IC50>
< 1 µM

$$$$
>  <compound>
Cc1noc(C)c1-c1cnc2c(-c3csc(C(=O)O)c3)cn([C@@H](C)c3ccccn3)c2c1

>  <experimental target>
BRD4-BD12 (1-477) (Homo sapiens (Human), UniProt O60885)

>  <IC50>
< 1 µM

$$$$
>  <compound>
COc1ccc(-c2cn(CC3CCC(F)(F)CC3)c3cc(-c4c(C)noc4C)cnc23)cn1

>  <experimental target>
BRD4-BD12 (1-477) (Homo sapiens (Human), UniProt O60885)

>  <IC50>
< 1 µM

$$$$
>  <compound>
Cc1noc(C)c1-c1cnc2c(-c3ccc(O)nc3)cn(C(C)c3ccccc3)c2c1 (stereo not shown)

>  <experimental target>
BRD4-BD12 (1-477) (Homo sapiens (Human), UniProt O60885)

>  <IC50>
< 1 µM

$$$$
>  <compound>
COc1ncc(-c2cnc3c(-c4cnn(CC(F)(F)F)c4)cn(CC4CCC(F)(F)CC4)c3c2)s1

>  <experimental target>
BRD4-BD12 (1-477) (Homo sapiens (Human), UniProt O60885)

>  <IC50>
< 1 µM

$$$$
>  <compound>
COc1ccccc1Cn1cc(-c2ccc(C(=O)O)cc2)c2ncc(-c3c(C)noc3C)cc21

>  <experimental target>
BRD4-BD12 (1-477) (Homo sapiens (Human), UniProt O60885)

>  <IC50>
< 1 µM

$$$$
>  <compound>
Cc1noc(C)c1-c1cnc2c(-c3ccc(C(=O)O)cc3)cn(CC3CCC4(CC3)CC4)c2c1

>  <experimental target>
BRD4-BD12 (1-477) (Homo sapiens (Human), UniProt O60885)

>  <IC50>
< 1 µM

$$$$
>  <compound>
[2H]C([2H])([2H])c1noc(C([2H])([2H])[2H])c1-c1cnc2c(-c3ccc(C(=O)O)cc3)cn(CC3CCC(F)(F)CC3)c2c1

>  <experimental target>
BRD4-BD12 (1-477) (Homo sapiens (Human), UniProt O60885)

>  <IC50>
< 1 µM

$$$$
>  <compound>
Cc1noc(C)c1-c1cnc2c(-c3ccc(C(=O)O)cc3)cn(Cc3ccccn3)c2c1

>  <experimental target>
BRD4-BD12 (1-477) (Homo sapiens (Human), UniProt O60885)

>  <IC50>
< 1 µM

$$$$
>  <compound>
Cc1noc(C)c1-c1ccc2c(-c3cnn(CC(F)(F)F)c3)cn(C(c3ccccc3)c3ccccn3)c2c1 (stereo not shown)

>  <experimental target>
BRD4-BD12 (1-477) (Homo sapiens (Human), UniProt O60885)

>  <IC50>
< 1 µM

$$$$
>  <compound>
Cc1noc(C)c1-c1cnc2c(-c3ccc(C(=O)O)cc3)cn([C@@H](c3ccccc3)c3ccccn3)c2c1

>  <experimental target>
BRD4-BD12 (1-477) (Homo sapiens (Human), UniProt O60885)

>  <IC50>
< 1 µM

$$$$
>  <compound>
Cc1noc(C)c1-c1cnc2c(c1)c(CC1CCC(F)(F)CC1)cn2-c1ncc(C(=O)O)cn1

>  <experimental target>
BRD4-BD12 (1-477) (Homo sapiens (Human), UniProt O60885)

>  <IC50>
< 1 µM

$$$$
>  <compound>
CC(=O)Nc1ccc(-c2cn(CC3(F)CCCCC3)c3cc(-c4c(C)noc4C)cnc23)cc1

>  <experimental target>
BRD4-BD12 (1-477) (Homo sapiens (Human), UniProt O60885)

>  <IC50>
< 1 µM

$$$$
>  <compound>
Cc1noc(C)c1-c1cnc2c(-c3ccc(C(=O)O)c(O)c3)cn(CC3(F)CCCCC3)c2c1

>  <experimental target>
BRD4-BD12 (1-477) (Homo sapiens (Human), UniProt O60885)

>  <IC50>
< 1 µM

$$$$
>  <compound>
Cc1noc(C)c1-c1cnc2c(-c3ccc(C4(C(=O)O)CC4)cc3)cn([C@@H](C)c3ccccn3)c2c1

>  <experimental target>
BRD4-BD12 (1-477) (Homo sapiens (Human), UniProt O60885)

>  <IC50>
< 1 µM

$$$$
>  <compound>
[2H]C([2H])(C1CC(F)(F)C1)n1cc(-c2cnn(CC(F)(F)F)c2)c2ncc(-c3c(C)noc3C)cc21

>  <experimental target>
BRD4-BD12 (1-477) (Homo sapiens (Human), UniProt O60885)

>  <IC50>
< 1 µM

$$$$

Value source: patent US10519177B2
